Reference for the values: PubChem BioAssay AID1159580

# Assay Summary: chemical genetic growth profiling, strain panel (AID 1159580);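 also: tested at 20 µM; growth read once vehicle control cultures reached saturation at 30 °C; 1 = growth at the plate median or of vehicle wells; lower values mean less growth of the strain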
# Particulars: S. cerevisiae deletion strains, growth OD, locus YPL055C, strain LGE1
Among all 5,500 compounds or so, about 2,000 (36%) were called active. Another 18% or so got no clear call; they are omitted. Rule as the data show it: active = normalized growth mostly below about 0.91 (no sharp cut-off); inconclusive = no clear call, values can overlap the other calls; inactive = mostly above about 0.92. Some of the results follow.
Classes used: yes (1) = active, no (0) = inactive

CCC(C(=O)O)c1ccccc1 (configuration not stated) ... no (0)
CNC(=S)NN=C(N)c1ccccn1 ... no (0)
CCCCCCCCCCCCCCSCC(=O)O ... no (0)
CC(=O)/C(=C\Nc1ncccn1)S(=O)(=O)c1ccc(Cl)cc1 ... no (0)
COc1ccc2cc1Oc1ccc(cc1)C[C@H]1c3cc(c(OC)cc3CCN1C)Oc1c(OC)c(OC)cc3c1[C@H](C2)N(C)CC3 ... no (0)
O=C(O)[C@H]1NCCC[C@H]1C(=O)O ... no (0)
CN1C(=O)CN=C(c2ccccc2)c2ccccc21 ... no (0)
Cc1ccc2cc(C)c(C)cc2c1 ... no (0)
CC(=O)OCc1ccc(/C=C(\C#N)S(=O)(=O)c2ccc(Cl)cc2)o1 ... no (0)
O=Nc1ccc2oc(=O)ccc2c1 ... no (0)
CCC(C(N)=O)c1ccccc1 (configuration not stated) ... no (0)
Nc1nc2ccc(Cl)cc2c2nc(-c3ccco3)nn12 ... no (0)
COc1ccc(C(=O)c2ccccc2O)c(O)c1 ... no (0)
CCN(CC)C(=S)SSC(=S)N(CC)CC ... yes (1)
CC12CCC(C1)C(C)(C)C2NC(=O)c1cccs1 (configuration not stated) ... no (0)
CNC1(C)C2CCC(C2)C1(C)C (configuration not stated) ... no (0)
COc1cc(C(O)C(=O)O)ccc1O (configuration not stated) ... no (0)
C=CC1=C(C(=O)O)N2C(=O)[C@@H](NC(=O)/C(=N/O)c3csc(N)n3)[C@H]2SC1 ... no (0)
NC(=O)N1c2ccccc2CC(=O)c2ccccc21 ... no (0)
CN(C)/C=C(\C#N)C(=O)Nc1ccc(F)c(Cl)c1 ... no (0)
N#Cc1cnn(-c2ccccc2)c1-n1cccc1 ... no (0)
Cc1c(Cl)cccc1SCC(=O)O ... no (0)
O=C(O)c1ccccc1OP(=O)(O)O ... no (0)
O=C(O)C1CC([C@@H]2CCCCN2)CN2CCCCC12 (some centres not stated) ... no (0)
COC(=O)c1cc(OC)c(OC)c(OC)c1NS(=O)(=O)c1cc(OC)ccc1OC ... no (0)
O[Si](CCCN1CCCCC1)(c1ccc(F)cc1)C1CCCCC1 (configuration not stated) ... no (0)
O=c1ccc2cc(O)c(O)cc2o1 ... no (0)

* * *

# Assay Summary: chemical genetic growth profiling, strain panel (AID 1159580);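 also: tested at 20 µM; growth read once vehicle control cultures reached saturation at 30 °C; 1 = growth at the plate median or of vehicle wells; lower values mean less growth of the strain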
# Particulars: S. cerevisiae deletion strains, growth OD, locus YJL095W, strain BCK1
Out of some 5,500 compounds screened, about 2,000 (36%) were called active. Roughly 18% stayed inconclusive and do not appear here. Rule as the data show it: active = normalized growth mostly below about 0.91 (no sharp cut-off); inconclusive = no clear call, values can overlap the other calls; inactive = mostly above about 0.92. Some of the results follow. Where a SMILES comes first, the peptide text is derived from it.
Classes used: True (active), False (inactive)

N#Cc1c(Cl)c(Cl)c(Cl)c(Cl)c1C#N ... True
C/C(=N/NC(N)=S)c1ccccn1 ... False
O=C(Nc1c(Br)c(C2CC2)nn1-c1ccccc1)C(Cl)(Cl)Cl ... False
OCC(O)Cc1ccc2c(c1)OCO2 (configuration not stated) ... False
CC1(C)C2CC[C@]3(C)C(C(=O)C=C4[C@@H]5C[C@@](C)(C(=O)O)CC[C@]5(C)CC[C@]43C)[C@@]2(C)CC[C@@H]1OC(=O)CCC(=O)O (some centres not stated) ... False
CC1=CC(=O)C(CCOCCC2=CC(=O)C(C)=CC2=O)=CC1=O ... False
O=C1C[C@@H](c2ccccc2)Oc2cc(O)cc(O)c21 ... False
O=C1CC(c2ccc(O)cc2)Oc2ccccc21 (configuration not stated) ... True
C=CCc1ccc2c(c1)OCO2 ... False
Cc1c(O)cc(O)c2c(=O)c(-c3ccc(O)cc3)coc12 ... False
CC(C)C[C@H](N)C(=O)N[C@@H](C)C(=O)O (H-Leu-Ala-OH) ... False
CC(=O)CC(=O)CCC(=O)O ... False
